target: rat collagen (acid soluble, type I, rat tail, Upstate 08-115) (rat) (UniProt P02454); experiment: dried collagen assay, 5 uM each
Sequence (P02454 152-1207, chain 1 of 2): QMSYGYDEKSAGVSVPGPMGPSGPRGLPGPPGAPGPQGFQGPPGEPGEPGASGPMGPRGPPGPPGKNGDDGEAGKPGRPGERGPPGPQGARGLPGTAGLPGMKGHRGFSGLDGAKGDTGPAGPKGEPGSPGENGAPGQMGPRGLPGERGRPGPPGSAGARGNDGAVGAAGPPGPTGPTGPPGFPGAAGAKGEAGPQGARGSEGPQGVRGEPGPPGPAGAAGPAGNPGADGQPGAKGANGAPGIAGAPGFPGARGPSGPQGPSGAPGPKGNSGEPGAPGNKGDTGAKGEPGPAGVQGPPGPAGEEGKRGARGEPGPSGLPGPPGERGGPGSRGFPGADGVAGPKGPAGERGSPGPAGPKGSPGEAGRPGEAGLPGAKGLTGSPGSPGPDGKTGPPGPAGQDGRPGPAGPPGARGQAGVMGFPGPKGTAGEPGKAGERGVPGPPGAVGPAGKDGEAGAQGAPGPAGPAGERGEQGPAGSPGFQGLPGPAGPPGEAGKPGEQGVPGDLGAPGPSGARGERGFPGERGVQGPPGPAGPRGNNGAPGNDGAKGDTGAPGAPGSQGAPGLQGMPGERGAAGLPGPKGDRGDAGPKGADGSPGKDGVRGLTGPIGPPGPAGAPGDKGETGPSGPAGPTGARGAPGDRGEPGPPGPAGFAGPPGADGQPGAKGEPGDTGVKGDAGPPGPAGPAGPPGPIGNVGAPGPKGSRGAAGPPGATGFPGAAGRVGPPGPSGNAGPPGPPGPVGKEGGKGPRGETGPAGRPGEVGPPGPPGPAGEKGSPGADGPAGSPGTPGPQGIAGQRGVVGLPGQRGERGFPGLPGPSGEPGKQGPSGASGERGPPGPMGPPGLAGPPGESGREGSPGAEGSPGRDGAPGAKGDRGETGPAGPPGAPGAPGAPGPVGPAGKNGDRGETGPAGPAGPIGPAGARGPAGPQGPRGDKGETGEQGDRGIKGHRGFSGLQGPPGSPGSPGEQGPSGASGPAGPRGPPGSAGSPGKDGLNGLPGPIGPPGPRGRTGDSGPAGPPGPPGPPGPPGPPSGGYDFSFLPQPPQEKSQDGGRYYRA
Sequence (P02466 86-1125, chain 2 of 2, further chain): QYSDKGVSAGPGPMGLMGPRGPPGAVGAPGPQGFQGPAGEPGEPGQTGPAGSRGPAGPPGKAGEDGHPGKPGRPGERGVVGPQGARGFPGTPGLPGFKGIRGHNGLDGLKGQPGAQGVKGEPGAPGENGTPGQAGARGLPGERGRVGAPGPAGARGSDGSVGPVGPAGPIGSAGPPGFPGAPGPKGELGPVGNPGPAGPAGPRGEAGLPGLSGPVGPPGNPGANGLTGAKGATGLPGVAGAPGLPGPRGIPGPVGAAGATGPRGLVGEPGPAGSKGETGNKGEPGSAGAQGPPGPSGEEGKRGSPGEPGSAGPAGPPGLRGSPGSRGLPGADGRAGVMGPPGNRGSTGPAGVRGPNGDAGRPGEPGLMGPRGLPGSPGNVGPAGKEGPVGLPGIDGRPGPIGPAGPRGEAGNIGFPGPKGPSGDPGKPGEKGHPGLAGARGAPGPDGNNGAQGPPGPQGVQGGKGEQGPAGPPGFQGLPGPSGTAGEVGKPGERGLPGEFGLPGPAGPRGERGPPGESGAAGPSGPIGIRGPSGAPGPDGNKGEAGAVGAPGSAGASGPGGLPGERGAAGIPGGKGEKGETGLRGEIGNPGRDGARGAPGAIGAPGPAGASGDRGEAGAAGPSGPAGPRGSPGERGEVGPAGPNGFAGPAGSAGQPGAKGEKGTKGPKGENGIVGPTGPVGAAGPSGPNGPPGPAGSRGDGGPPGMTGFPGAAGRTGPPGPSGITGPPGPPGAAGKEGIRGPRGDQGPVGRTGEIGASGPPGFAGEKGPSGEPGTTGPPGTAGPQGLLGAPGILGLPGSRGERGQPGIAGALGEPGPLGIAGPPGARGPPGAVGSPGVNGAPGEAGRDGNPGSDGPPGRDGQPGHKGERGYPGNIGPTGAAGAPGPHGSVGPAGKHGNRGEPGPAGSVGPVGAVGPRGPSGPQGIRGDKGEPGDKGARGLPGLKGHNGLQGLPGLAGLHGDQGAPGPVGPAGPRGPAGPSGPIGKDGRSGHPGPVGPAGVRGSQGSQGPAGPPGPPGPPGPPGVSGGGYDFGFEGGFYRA
Rat binding reference
Use % as the unit, but write only the number.

Consider the following illustrative entries.
# lookup: Rat binding of AWHCTTRFPAHYCLYG [Compound ID 937]
14

# lookup: Rat binding of GQWHCTTRFPKHYCLYG [Compound ID 958]
33

# lookup: Rat binding of GKWHCYTYFPYHYCVYG [Compound ID 963]
91

Further cases:
# lookup: Rat binding of GQWHCTTRFPHHRCLYG [Compound ID 902]
2

# lookup: Rat binding of GKWHCYTYFPHHYCLYVK [Compound ID 989]
74

# lookup: Rat binding of GQWHCTTRYPHHYCLYG [Compound ID 859]
38

# lookup: Rat binding of DWTCSYDEYTWHCNYE [Compound ID 829]
21

# lookup: Rat binding of GQWTCSGDEYTWACNYE [Compound ID 833]
4

# lookup: Rat binding of GKWHCYTYFPHHYCVYGK [Compound ID 974]
69

# lookup: Rat binding of GQWTCYGDEYTWYCNYE [Compound ID 826]
71

# lookup: Rat binding of GKWHCTTLFPHHVCLYG [Compound ID 966]
8

# lookup: Rat binding of PPQWHCTTRFPHHYCLYG [Compound ID 854]
56

# lookup: Rat binding of GQWACSGDEYTWHCNYE [Compound ID 840]
3

# lookup: Rat binding of GKWHCYTYFPHHYCLYGK [Compound ID 996]
67
